Target: UniProtKB P11229
Test: ERK1/2 phosphorylation in TET-inducible hM1 TREx CHO cells
Format: cell-based
Settings: read-out: ERK EC50, TET 0 ng/mL
quantity: pEC50
When answering, recall that pEC50 equals minus log10 of the concentration in mol/L, and write that number alone.

Exercise: Record request: pEC50 value, item `CCOC(=O)N1CCC(N2CCC[C@@H](NC(=O)c3ccccc3C)C2)CC1`
Key: 3.97

----------
EC50 for assorted compounds
Biological target: human M1 mAChR (Homo sapiens, UniProt P11229)
Sequence (P11229 whole entry): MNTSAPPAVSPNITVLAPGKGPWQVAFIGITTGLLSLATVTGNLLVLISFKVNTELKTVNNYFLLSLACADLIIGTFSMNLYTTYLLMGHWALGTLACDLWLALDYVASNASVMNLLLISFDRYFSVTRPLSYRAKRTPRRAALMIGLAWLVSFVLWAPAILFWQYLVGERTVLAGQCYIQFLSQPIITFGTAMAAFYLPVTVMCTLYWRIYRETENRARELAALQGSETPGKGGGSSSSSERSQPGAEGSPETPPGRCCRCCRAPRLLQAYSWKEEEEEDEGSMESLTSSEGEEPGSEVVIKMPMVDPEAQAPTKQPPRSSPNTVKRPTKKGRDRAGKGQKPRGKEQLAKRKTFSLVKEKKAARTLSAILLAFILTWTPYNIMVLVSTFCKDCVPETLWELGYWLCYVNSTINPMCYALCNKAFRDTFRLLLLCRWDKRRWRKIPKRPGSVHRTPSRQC
Experiment: Calcium mobilization in TET-inducible hM1 TREx CHO cells
Conditions: read-out: Ca EC50, TET 10 ng/mL
Report the figure in µM without appending any unit label.

smiles-str: CCOC(=O)N1CCC(N2CCC[C@@H](NC(=O)c3ccccc3C)C2)CC1
quantity: EC50
quantitative-result: 146

// next entry
Exercise: Please report the recorded EC50 for `CCOC(=O)N1CCC(NCCNC(=O)c2ccccc2C)CC1.Cl` .
Key: 16
